# CONDITION_DESCRIPTION: Crystal; DTA
MEASURED_ATTRIBUTE: Normal melting temperature (°C)
Just the number in °C, nothing appended.

Problem: What Normal melting temperature value was documented for this molecule, `O=C(O)CC1CCCCC1` ?
Solution: 28.8

Problem: What Normal melting temperature value was documented for this molecule, CC(=O)OC1CCCCC1 [cyclohexyl ethanoate] ?
Solution: -51.70

Problem: What Normal melting temperature value was documented for this molecule, CC(=O)OCCC1CCCCC1 [cyclohexylethyl acetate] ?
Solution: -51.70

Problem: What Normal melting temperature value was documented for this molecule, `O=C(O)C1CCCCC1` ?
Solution: 29.8
